biological target: RARα (Homo sapiens, UniProt P10276, E106G/G107S/G110V); construct: expressed in transfected cells; host or cells: CV-1; experiment: RAR-P-GR holoreceptor transactivation assay (PGR assay); format: cell-based; conditions: relative to all-trans-retinoic acid; read-out: % Efficiency RARα
Sequence (P10276 whole entry E106G/G107S/G110V): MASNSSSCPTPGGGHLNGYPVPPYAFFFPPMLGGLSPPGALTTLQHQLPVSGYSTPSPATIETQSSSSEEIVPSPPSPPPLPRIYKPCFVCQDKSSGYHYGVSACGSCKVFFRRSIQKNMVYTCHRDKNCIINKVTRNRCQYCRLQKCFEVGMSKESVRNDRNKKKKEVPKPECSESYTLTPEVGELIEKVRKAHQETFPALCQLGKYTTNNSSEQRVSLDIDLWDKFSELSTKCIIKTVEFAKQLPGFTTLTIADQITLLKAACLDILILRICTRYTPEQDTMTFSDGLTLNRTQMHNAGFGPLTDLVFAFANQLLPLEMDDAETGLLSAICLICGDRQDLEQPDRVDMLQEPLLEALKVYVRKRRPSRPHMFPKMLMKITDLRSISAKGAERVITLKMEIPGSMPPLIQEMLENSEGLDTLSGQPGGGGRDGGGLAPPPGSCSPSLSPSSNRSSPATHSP
Sequence (P19793 whole entry partner): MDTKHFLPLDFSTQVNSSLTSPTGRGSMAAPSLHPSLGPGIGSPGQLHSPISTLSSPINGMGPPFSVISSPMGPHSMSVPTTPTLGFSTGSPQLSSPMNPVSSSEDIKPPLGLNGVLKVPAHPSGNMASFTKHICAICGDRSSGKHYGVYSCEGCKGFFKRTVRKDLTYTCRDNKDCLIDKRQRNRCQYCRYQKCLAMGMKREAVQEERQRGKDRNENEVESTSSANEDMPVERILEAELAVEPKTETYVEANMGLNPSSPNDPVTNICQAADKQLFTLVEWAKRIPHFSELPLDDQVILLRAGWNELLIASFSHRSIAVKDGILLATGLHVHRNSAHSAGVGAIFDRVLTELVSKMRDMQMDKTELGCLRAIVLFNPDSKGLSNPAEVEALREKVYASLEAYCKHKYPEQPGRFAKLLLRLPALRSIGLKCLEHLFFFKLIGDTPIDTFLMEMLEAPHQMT
measured endpoint: Emax (%)
// return numeric value only (unit: %, not printed)

Please look at COCOc1ccc(C#Cc2ccc(C(=O)O)cc2)cc1C(=O)c1ccc(C)cc1 and tell me its recorded Emax on RARα (Homo sapiens, UniProt P10276, E106G/G107S/G110V).
0

Look up and report measured Emax (RARα (Homo sapiens, UniProt P10276, E106G/G107S/G110V)) for the following compound: C=C(c1ccc(C)cc1)c1cc(C#Cc2ccc(C(=O)O)cc2)ccc1OC
0

Look up and report Emax, with RARα (Homo sapiens, UniProt P10276, E106G/G107S/G110V) as system, for C=C(c1ccc(C)cc1)c1cc(C#Cc2ccc(C(=O)O)cc2)ccc1OCOC
1

Give reported Emax for C=C(c1ccc(C)cc1)c1cc(C#Cc2ccc(C(=O)O)cc2)ccc1OC(C)C (RARα (Homo sapiens, UniProt P10276, E106G/G107S/G110V))
0

###

Kindly state Emax for each of the entries shown.
Biological target: RARβ (Homo sapiens, UniProt P10826, E106G/G107S/G110V)
Construct: expressed in transfected cells; host or cells: CV-1
Test: RAR-P-GR holoreceptor transactivation assay (PGR assay)
Type: cell-based
Conditions: relative to all-trans-retinoic acid; read-out: % Efficiency RARβ
Description: Still another transactivation assay, the "PGR assay" is described in the publication KIein et al. J. Biol. Chem. 271, 22692-22696 (1996) which is expressly incorporated herein by reference, and a detailed description is also provided below. The results of the PGR assay are also expressed in EC50 numbers (nanomolar concentration). RAR-P-GR Holoreceptor Transactivation Assay […]
State the value, then name its unit.

// fetch Emax given entry C=C(c1ccc(C)cc1)c1cccc(C#Cc2ccc(C(=O)O)cc2)c1
5%

Query Emax for C=C(c1ccc(C)cc1)c1cc(C#Cc2ccc(C(=O)O)cc2)ccc1O
3%

Supply reported Emax belonging to this compound: C=C(c1ccc(C)cc1)c1cc(C#Cc2ccc(C(=O)O)cc2)ccc1OCOC
3%

Answer with the recorded Emax of COc1ccc(C#Cc2ccc(C(=O)O)cc2)cc1C(=O)c1ccc(C)cc1 only.
0%

Indicate the recorded Emax value for this compound: Cc1ccc(C(=O)c2cc(C#Cc3ccc(C(=O)O)c(F)c3)c(C)cc2O)cc1
2%

Give reported Emax value for C=C(c1cccc(C)c1)c1cc(C#Cc2ccc(C(=O)O)cc2)ccc1OC(C)C
4%

Retrieve Emax measured for C=C(c1ccc(C)cc1)c1cc(C#Cc2ccc(C(=O)O)c(F)c2)ccc1OC(C)C and print it.
0%

Supply measured Emax of Cc1ccc(C(=O)c2cc(C#Cc3ccc(C(=O)O)cc3)ccc2O)cc1 in your reply.
3%

Return reported Emax. Input compound: C=C(c1ccc(C)cc1)c1cc(C#Cc2ccc(C(=O)O)cc2)ccc1OC(C)C
0%

# return recorded Emax for input COCOc1ccc(C#Cc2ccc(C(=O)O)cc2)cc1C(=O)c1ccc(C)cc1
0%

Supply Emax value. Item: C=C(c1ccc(C)cc1)c1cc(C#Cc2ccc(C(=O)O)cc2)ccc1OC
1%

###

molecular target: RARγ (Homo sapiens, UniProt P13631, E108G/G109S/G112V); construct: expressed in transfected cells; host or cells: CV-1; experiment: RAR-P-GR holoreceptor transactivation assay (PGR assay); format: cell-based; conditions: relative to all-trans-retinoic acid; read-out: % Efficiency RARγ
Sequence (P13631 whole entry E108G/G109S/G112V, species assumed, one chain of several): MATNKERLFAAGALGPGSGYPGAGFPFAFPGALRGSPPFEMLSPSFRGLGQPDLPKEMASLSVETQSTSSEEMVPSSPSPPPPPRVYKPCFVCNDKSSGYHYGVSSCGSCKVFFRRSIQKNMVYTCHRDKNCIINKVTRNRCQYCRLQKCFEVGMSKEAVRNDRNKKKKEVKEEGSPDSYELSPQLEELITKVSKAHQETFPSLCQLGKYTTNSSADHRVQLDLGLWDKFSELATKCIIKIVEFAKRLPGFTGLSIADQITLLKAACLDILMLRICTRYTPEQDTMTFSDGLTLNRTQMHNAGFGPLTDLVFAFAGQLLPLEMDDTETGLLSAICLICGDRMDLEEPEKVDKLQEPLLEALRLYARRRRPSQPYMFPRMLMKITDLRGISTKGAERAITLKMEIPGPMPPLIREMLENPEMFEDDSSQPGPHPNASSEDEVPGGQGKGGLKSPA
Each entry gets Condition not met if its Emax stays under 1%, and Condition met if its Emax is 1% or above.

Check this compound for Emax at or above 1%: C=C(c1ccc(C)cc1)c1cc(C#Cc2ccc(C(=O)O)cc2)ccc1OC
Condition met

Check the entry COCOc1ccc(C#Cc2ccc(C(=O)O)cc2)cc1C(=O)c1ccc(C)cc1 : does Emax equal or exceed 1%?
Condition not met

Does the compound Cc1ccc(C(=O)c2cc(C#Cc3ccc(C(=O)O)c(F)c3)c(C)cc2O)cc1 have recorded Emax that is 1% or more?
Condition not met

Does C=C(c1ccc(C)cc1)c1cc(C#Cc2ccc(C(=O)O)cc2)ccc1O have a reported Emax of at least 1%?
Condition met

# check: Emax of COc1ccc(C#Cc2ccc(C(=O)O)cc2)cc1C(=O)c1ccc(C)cc1 is greater than or equal to 1%
Condition not met

Reported Emax at or above 1%? C=C(c1cccc(C)c1)c1cc(C#Cc2ccc(C(=O)O)cc2)ccc1OC(C)C
Condition met

Dear colleague, could you confirm whether C=C(c1ccc(C)cc1)c1cc(C#Cc2ccc(C(=O)O)cc2)ccc1OCOC has Emax at or above 1%?
Condition met

###

Hi there, I'd appreciate the recorded Kd for every entry that follows.

Write Kd of C=C(c1ccc(C)cc1)c1cccc(C#Cc2ccc(C(=O)O)cc2)c1 [Compound 20] ; system used: RARα (Homo sapiens, UniProt P10276)
Sequence (P10276 whole entry): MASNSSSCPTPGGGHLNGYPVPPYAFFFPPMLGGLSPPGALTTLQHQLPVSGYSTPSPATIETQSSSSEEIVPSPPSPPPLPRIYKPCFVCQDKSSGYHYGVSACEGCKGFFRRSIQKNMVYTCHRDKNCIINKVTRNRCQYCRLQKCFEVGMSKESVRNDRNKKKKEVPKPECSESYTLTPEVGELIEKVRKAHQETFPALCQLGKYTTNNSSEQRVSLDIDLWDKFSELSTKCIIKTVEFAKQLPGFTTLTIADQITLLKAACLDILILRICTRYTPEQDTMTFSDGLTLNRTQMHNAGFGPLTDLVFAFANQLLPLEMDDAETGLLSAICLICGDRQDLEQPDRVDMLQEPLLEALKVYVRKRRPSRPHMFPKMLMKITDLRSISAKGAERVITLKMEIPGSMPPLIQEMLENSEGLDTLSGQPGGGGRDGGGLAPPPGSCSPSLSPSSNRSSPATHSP
> 1 µM

Provide RARα (Homo sapiens, UniProt P10276) Kd reading for C=C(c1ccc(C)cc1)c1cc(C#Cc2ccc(C(=O)O)cc2)ccc1O [Compound 8] .
8.2 µM

Specify Kd for C=C(c1cccc(C)c1)c1cc(C#Cc2ccc(C(=O)O)cc2)ccc1OC(C)C [Compound 31] , system RARα (Homo sapiens, UniProt P10276).
3.29 µM

Provide Kd, tested on RARα (Homo sapiens, UniProt P10276), for C=C(c1ccc(C)cc1)c1cc(C#Cc2ccc(C(=O)O)cc2)ccc1OC(C)C [Compound 28] .
2.09 µM

###

target: RARγ (Homo sapiens, UniProt P13631); assay: Ligand binding assay
Sequence (P13631 whole entry): as the sequence (P13631 whole entry E108G/G109S/G112V, species assumed, one chain of several) above, with G108E, S109G, V112G counted along it
Provide the recorded Kd for the entries that follow.
Answer in nM, number only, no unit symbol.

Return Kd for the following molecule: COc1ccc(C#Cc2ccc(C(=O)O)cc2)cc1C(=O)c1ccc(C)cc1
1500

Please indicate Kd recorded for C=C(c1ccc(C)cc1)c1cc(C#Cc2ccc(C(=O)O)c(F)c2)ccc1OC(C)C
817

For the molecule C=C(c1cccc(C)c1)c1cc(C#Cc2ccc(C(=O)O)cc2)ccc1OC(C)C , give its measured Kd value.
366

###

Molecular target: RARβ (Homo sapiens, UniProt P10826)
Sequence (P10826 1-448 isoform P10826-2): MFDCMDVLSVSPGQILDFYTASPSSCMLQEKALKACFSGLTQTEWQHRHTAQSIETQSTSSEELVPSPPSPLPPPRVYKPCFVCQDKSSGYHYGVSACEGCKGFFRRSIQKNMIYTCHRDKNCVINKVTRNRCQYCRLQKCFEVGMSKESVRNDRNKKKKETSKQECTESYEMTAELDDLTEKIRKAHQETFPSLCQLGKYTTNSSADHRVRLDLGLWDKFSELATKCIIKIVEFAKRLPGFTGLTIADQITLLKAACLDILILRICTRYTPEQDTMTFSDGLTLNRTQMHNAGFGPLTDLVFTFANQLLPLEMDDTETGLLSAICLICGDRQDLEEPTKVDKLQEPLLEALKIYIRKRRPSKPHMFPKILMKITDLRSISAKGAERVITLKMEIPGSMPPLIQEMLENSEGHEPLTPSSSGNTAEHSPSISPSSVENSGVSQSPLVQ
So I've got a bunch of compounds here, and I need their Kd values.
Hi! Could you send only the number? It should be in nM, unit omitted.

Let me know recorded Kd for C=C(c1ccc(C)cc1)c1cc(C#Cc2ccc(C(=O)O)cc2)ccc1OC(C)C , thanks.
538

Give the measured Kd for COc1ccc(C#Cc2ccc(C(=O)O)cc2)cc1C(=O)c1ccc(C)cc1
763

Identify the reported Kd for the following entry. Cc1ccc(C(=O)c2cc(C#Cc3ccc(C(=O)O)c(F)c3)c(C)cc2O)cc1
217

###

Answer each item with its documented Emax.
target: RARα (Homo sapiens, UniProt P10276, E106G/G107S/G110V); construct: expressed in transfected cells; host or cells: CV-1; assay: RAR-P-GR holoreceptor transactivation assay (PGR assay); assay type: cell-based; conditions: relative to all-trans-retinoic acid; read-out: % Efficiency RARα
The reply should be a number in %, with the unit left off.

Supply Emax value. Item: C=C(c1cccc(C)c1)c1cc(C#Cc2ccc(C(=O)O)cc2)ccc1OC(C)C
0

For C=C(c1ccc(C)cc1)c1cccc(C#Cc2ccc(C(=O)O)cc2)c1 , write its Emax.
9

Return value of Emax for input Cc1ccc(C(=O)c2cc(C#Cc3ccc(C(=O)O)cc3)ccc2O)cc1 , no commentary.
1

Output measured Emax for this item: C=C(c1ccc(C)cc1)c1cc(C#Cc2ccc(C(=O)O)cc2)ccc1O
1

Please give the documented Emax of Cc1ccc(C(=O)c2cc(C#Cc3ccc(C(=O)O)c(F)c3)c(C)cc2O)cc1
0

# return recorded Emax for entry C=C(c1ccc(C)cc1)c1cc(C#Cc2ccc(C(=O)O)c(F)c2)ccc1OC(C)C
0

// Input: COc1ccc(C#Cc2ccc(C(=O)O)cc2)cc1C(=O)c1ccc(C)cc1 . Output its Emax only.
0
